Some compounds, each annotated with its measured inhibition.
Molecular target: DNA topoisomerase 1 (Homo sapiens)
Assay: Inhibition of recombinant human DNA topoisomerase-1-mediated relaxation of supercoiled DNA pBR322 at 20 uM after 7 hrs using ethidium bromide staining by agarose gel electrophoresis analysis
measurement.label: inhibition (%)

smiles.code	tested.target	measurement.label	quantitative.result
Cc1ccc2cc(-c3cccs3)nc(N3CCNCC3)c2c1	DNA topoisomerase 1 (Homo sapiens)	inhibition	0
Cc1ccc2c(N3CCCCC3)nc(-c3cccs3)cc2c1	DNA topoisomerase 1 (Homo sapiens)	inhibition	0
CCN1CCN(c2nc(-c3cccs3)cc3ccc(C)cc23)CC1	DNA topoisomerase 1 (Homo sapiens)	inhibition	6.5
Cc1ccc2cc(-c3cccs3)nc(N3CCN(C)CC3)c2c1	DNA topoisomerase 1 (Homo sapiens)	inhibition	0
Cc1ccc2cc(-c3cccs3)nc(N3CCCCC3)c2c1	DNA topoisomerase 1 (Homo sapiens)	inhibition	0
Cc1ccc2c(N3CCNCC3)nc(-c3cccs3)cc2c1	DNA topoisomerase 1 (Homo sapiens)	inhibition	0
